molecular target: Staphylococcus aureus DNA gyrase (Staphylococcus aureus, UniProt P0A0K8+P20831); assay: In vitro enzyme inhibition assay; settings: mean of three values, read-out: IC50 (Mean ± SEM) DNA Gyrase
Sequence (P20831 whole entry): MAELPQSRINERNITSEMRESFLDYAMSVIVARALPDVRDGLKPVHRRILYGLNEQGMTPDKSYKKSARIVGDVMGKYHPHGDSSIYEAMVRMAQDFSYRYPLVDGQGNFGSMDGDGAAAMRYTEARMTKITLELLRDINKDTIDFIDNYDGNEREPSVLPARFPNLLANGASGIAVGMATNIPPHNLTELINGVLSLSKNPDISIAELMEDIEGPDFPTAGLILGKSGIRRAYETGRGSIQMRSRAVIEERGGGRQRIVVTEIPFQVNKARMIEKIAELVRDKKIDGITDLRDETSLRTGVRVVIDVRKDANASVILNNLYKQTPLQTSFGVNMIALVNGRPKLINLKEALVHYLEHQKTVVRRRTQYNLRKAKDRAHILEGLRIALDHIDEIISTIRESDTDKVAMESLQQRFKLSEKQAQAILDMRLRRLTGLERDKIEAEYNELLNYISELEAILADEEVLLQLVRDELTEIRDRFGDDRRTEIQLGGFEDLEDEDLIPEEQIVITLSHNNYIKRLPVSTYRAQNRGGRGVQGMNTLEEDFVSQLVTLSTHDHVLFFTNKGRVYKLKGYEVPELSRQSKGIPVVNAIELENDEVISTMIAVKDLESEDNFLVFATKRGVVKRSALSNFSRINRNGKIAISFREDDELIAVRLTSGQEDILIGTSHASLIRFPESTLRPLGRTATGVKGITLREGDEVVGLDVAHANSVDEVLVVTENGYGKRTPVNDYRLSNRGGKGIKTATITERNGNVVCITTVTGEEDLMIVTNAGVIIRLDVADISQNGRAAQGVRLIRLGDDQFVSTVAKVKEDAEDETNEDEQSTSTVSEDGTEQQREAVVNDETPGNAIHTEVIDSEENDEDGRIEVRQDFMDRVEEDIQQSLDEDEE
Sequence (P0A0K8 whole entry): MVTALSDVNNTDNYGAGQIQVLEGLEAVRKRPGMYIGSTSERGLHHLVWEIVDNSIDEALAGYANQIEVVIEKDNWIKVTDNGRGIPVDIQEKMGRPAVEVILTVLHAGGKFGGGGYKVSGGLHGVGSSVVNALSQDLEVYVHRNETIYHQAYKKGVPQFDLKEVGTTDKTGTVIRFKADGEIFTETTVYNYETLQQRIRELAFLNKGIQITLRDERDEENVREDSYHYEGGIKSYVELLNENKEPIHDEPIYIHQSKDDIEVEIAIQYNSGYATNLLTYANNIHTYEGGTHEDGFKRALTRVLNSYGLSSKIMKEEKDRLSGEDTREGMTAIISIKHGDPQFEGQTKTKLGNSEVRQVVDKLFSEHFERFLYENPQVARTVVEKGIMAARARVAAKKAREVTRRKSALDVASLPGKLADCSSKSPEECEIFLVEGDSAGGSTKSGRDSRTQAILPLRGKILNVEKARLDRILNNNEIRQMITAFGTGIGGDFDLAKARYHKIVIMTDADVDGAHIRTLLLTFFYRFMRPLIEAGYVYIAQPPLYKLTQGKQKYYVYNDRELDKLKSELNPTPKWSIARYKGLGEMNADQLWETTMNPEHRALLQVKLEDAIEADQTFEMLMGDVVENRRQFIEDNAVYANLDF
RESULT_TYPE: pIC50
# pIC50: negative log10 of molar concentration; output just the value

Prompt: Find the recorded pIC50 belonging to `COc1ccc(Nc2n[nH]c(/N=C/c3ccccc3)c2C(=O)Nc2ccc(C)cc2)cc1` and report it.
Response: 5.77

---

system: Enterobacter cloaca (Ecl); assay: Minimal inhibitory concentration against multi-drug resistant bacteria; type: cell-based; conditions: NA: No Activity
# MIC per entry
Field format: number, assumed µg/mL, no unit text.

COc1ccc(Nc2n[nH]c(/N=C/c3ccc(C)cc3)c2C(=O)Nc2ccc(Cl)cc2)cc1 [Compound 23]    62.5
COc1ccc(Nc2n[nH]c(/N=C/c3ccc(C)cc3)c2C(=O)Nc2ccccc2)cc1 [Compound 15]    62.5
COc1ccc(Nc2n[nH]c(/N=C/c3ccc(F)cc3)c2C(=O)Nc2ccccc2)cc1 [Compound 17]    125
COc1ccc(Nc2n[nH]c(/N=C/c3ccc(Cl)cc3)c2C(=O)Nc2ccccc2)cc1 [Compound 16]    62.5

With those in mind, consider the next compound.
Prompt: Which MIC is listed for COc1ccc(Nc2n[nH]c(/N=C/c3ccccc3)c2C(=O)Nc2ccc(C)cc2)cc1 [Compound 18] ?
Response: 62.5
